Values compiled from patent US9376382B2.

protocol_summary: Intense light irradiation test (4500LX ± 500LX), stability study
Type: physicochemical
conditions_used: Day 0, cell wraps, first line given
measurement_kind: Appearance Day 0

// solved cases for Appearance Day 0 follow
{"columns": ["molecule", "Appearance Day 0"],
 "data": [
  ["Cc1cc(S(=O)(=O)Nc2cccc(Br)c2)c2c(C)ccc(C(C)C)cc1-2", "purple"],
  ["Cc1ccc(NS(=O)(=O)c2cc(C)c3cc(C(C)C)ccc(C)c2-3)cc1", "purple"],
  ["COc1ccc(NS(=O)(=O)c2cc(C)c3cc(C(C)C)ccc(C)c2-3)c(OC)c1", "purple"],
  ["Cc1cc(S(=O)(=O)[O-])c2c(C)ccc(C(C)C)cc1-2.[Na+] [Azulene sulfonate sodium, reference compound]", "dark blue"],
  ["Cc1cc(S(=O)(=O)Nc2ccc(N)cc2)c2c(C)ccc(C(C)C)cc1-2", "purple"]
]}

*Q* Looking for the measured Appearance Day 0 of `Cc1cc(S(=O)(=O)NCC(C)C)c2c(C)ccc(C(C)C)cc1-2` , can you help?
*A* purple

*Q* Next up: `Cc1cc(S(=O)(=O)Nc2ccc(Cl)cc2)c2c(C)ccc(C(C)C)cc1-2`
*A* purple

*Q* Next up: `Cc1cc(S(=O)(=O)NC2CCCCC2)c2c(C)ccc(C(C)C)cc1-2`
*A* purple

*Q* Next up: `Cc1cc(S(=O)(=O)NCc2ccccc2)c2c(C)ccc(C(C)C)cc1-2`
*A* dark blue
